- Test system: M14
- Experimental protocol: NCI tumour cell line growth inhibition, 48 h
Active and inactive are the calls of the source. Rule as the data show it: active = GI50 up to about 1.1 µM and inactive = higher.
Measure name: GI50

Sample answers from the record:
- Compound: "COc1cccc(CN(C(=O)/C=C\\Sc2ccccc2)C(C)(C)C)c1"
  GI50: "84.7 µM (inactive)"
- Compound: "O=C1CN(/N=C/c2ccc(-c3ccc(F)cc3)o2)C(=O)N1"
  GI50: "75.3 µM (inactive)"
- Compound: "Cc1ccccc1NC(=O)C1C(=O)N(c2ccccc2C)C(=O)/C1=N\\N (centres undefined)"
  GI50: "> 100 µM (inactive)"

Okay, now this compound:
Consider the compound shown here: C/C(=C/CC[C@](C)(OC1OC(CO)C(O)C(O)C1O)[C@H]1CC[C@]2(C)[C@@H]1CC[C@@H]1[C@@]3(C)CC[C@H](O)C(C)(C)[C@@H]3C[C@H](O)[C@]12CO)CO (some centres undefined) What is its recorded GI50?
> 100 µM (inactive)

* * *

Kindly supply the reported GI50 values for the records listed here.
- Test system: OVCAR-3
- Experimental protocol: NCI tumour cell line growth inhibition, 48 h
The source made the active and inactive calls. Cut-off read from the data, not from the text of the source: active = GI50 up to about 1.1 µM and inactive = higher.

- Compound: "CC(=O)OC1CCC2(C)C(CCC3C2CC(=O)C2(C)C3CC(N3CC3)C2C(C)=O)C1 (stereo not given)"
  Recorded result: "26.2 µM (inactive)"
- Compound: "C=C1C(=O)O[C@@H]2[C@H]1CCC(C)=C1C=CC(=O)[C@]12C"
  Recorded result: "16.7 µM (inactive)"
- Compound: "COc1cc(C2c3cc4c(cc3[C@@H](Nc3ccc(N)cc3)C3COC(=O)[C@H]23)OCO4)cc(OC)c1O (stereo not given in full)"
  Recorded result: "6.1 µM (inactive)"

Please report GI50 for every entry that follows.
1. COc1ccccc1C(=O)N(C)c1ccc(Cl)c(C(=O)OC(C)C)c1
2. COC(=O)c1ccc(CCC2=CC(=O)C=CC2=O)cc1

1. 71.3 µM (inactive)
2. 6.85 µM (inactive)

* * *

- Test system: HL-60
- Experimental protocol: NCI tumour cell line growth inhibition, 48 h
Activity calls are given as the source filed them. Rule as the data show it: active = GI50 up to about 1.1 µM and inactive = higher.
Measure name: GI50

- Molecule: "CC1=C(C(=O)Nc2ccccc2C)C(c2ccc([N+](=O)[O-])cc2)C(C(=O)Nc2ccccc2C)=C(C)N1"
  GI50: "19.8 µM (inactive)"
- Molecule: "CN(C)c1ccc(/C=C(\\NC(=O)c2ccccc2)c2nn(C)c(=O)o2)cc1"
  GI50: "34.6 µM (inactive)"
- Molecule: "CC1(C)C(c2ccccc2)C12CCC1(C2=O)C(c2ccccc2)C1(C)C (stereo not drawn)"
  GI50: "20.1 µM (inactive)"
- Molecule: "CCN(CC)CCOC(=O)/C(=C/c1ccc(OC)cc1)c1cc(OC)c(OC)c(OC)c1"
  GI50: "3.3 µM (inactive)"
- Molecule: "O=C(Nc1ccc(Cl)cc1Cl)C(=O)C(C(=O)c1ccc2ccccc2c1)C1OC(=O)c2ccccc21 (stereo not drawn)"
  GI50: "2.96 µM (inactive)"

Please report GI50 for every entry that follows.
1. CC(Sc1ccccc1)C(CO)(CO)[N+](=O)[O-] (stereo not drawn)
2. N#C/C(N)=C(C#N)/N=C/NCCO

["3.58 µM (inactive)", "> 100 µM (inactive)"]

Consider the molecule shown here: Nc1nc2ncn(CCO)c2c(=S)[nH]1 What is its recorded GI50?
> 100 µM (inactive)
